# tested-target: T1, TCE-26 (anti-CD3 scFv W233A; anti-TROP2 HC wt)
# T1 construct: scFv on the Fab heavy chain; also called TCE-26 (W233A)
# experiment-description: competition ELISA, TCE on captured CD3
pIC50: −log10 of the molar value. Where no end group is shown, it is not given here.
endpoint: pIC50

SECLVDLQSDPCYW (cysteine pairing not given here; also: biotinylated, site not given here, mask peptide for the CD3 scFv) [Peptide-69] ... 5.69

a = YLCGPDGDETLACY (cysteine pairing not given here; also: biotinylated, site not given here, mask peptide for the CD3 scFv) [Peptide-70]
b = DWCWYSPDNDGLCD (cysteine pairing not given here; also: biotinylated, site not given here, mask peptide for the CD3 scFv) [Peptide-68]
c = QGCGTIADPEPHCW (cysteine pairing not given here; also: biotinylated, site not given here, mask peptide for the CD3 scFv) [Peptide-65]
d = VDCGPDGDESILCY (cysteine pairing not given here; also: biotinylated, site not given here, mask peptide for the CD3 scFv) [Peptide-71]
Sequence the entries by pIC50, beginning with the highest number. Use the labels to give the ranking in the order requested.
c, a, b, d
